Data provenance is paper PMC8809517.

Exercise: state measured Kd for each of the binders provided.
# measurement-target: T1, GFP-9S library array, motif 4 ND N98V;D124E (synthetic construct, N98V;D124E)
# T1 chain: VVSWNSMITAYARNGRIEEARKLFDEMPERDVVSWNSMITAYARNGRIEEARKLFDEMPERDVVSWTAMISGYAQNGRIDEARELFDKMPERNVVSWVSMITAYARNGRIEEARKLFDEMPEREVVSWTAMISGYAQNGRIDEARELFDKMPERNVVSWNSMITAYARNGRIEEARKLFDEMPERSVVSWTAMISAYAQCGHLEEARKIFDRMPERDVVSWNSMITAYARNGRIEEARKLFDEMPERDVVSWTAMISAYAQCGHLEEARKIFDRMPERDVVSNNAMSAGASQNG
# assay-notes: high-throughput RNA pulldown from lysate on Ni-NTA beads; HRP: 50 mM Tris pH 8, 150 mM NaCl, 1 mM beta-mercaptoethanol, 50 ug/ml BSA, 3 ug/ml yeast RNA, 0.5% heparin; ITC and FP: Tris pH 8, 200 mM KCl, 5% glycerol; MST: 50 mM Tris pH 8, 200 mM NaCl, 1 mM DTT, BSA, heparin, 0.05% Tween 20
# condition-info: tags: N-terminal His-eGFP; label: 5' IRDye 800CW
Enter your answer as a number in nM; do not include the unit.

So for AUUAUACGUGA (ssRNA) [IR-rpoA-U] , the logged Kd turned out to be 244

The binder listed as AUUAAACGUGA (ssRNA) [IR-rpoA-A] has a reported Kd of 168
